Give measured pKi for each item. Keep answers brief.
- Assay System: cloned human dopamine D3 receptors (Homo sapiens, UniProt P35462)
- Construct: expressed in transfected cells; membrane homogenate
- Sequence (P35462 whole entry): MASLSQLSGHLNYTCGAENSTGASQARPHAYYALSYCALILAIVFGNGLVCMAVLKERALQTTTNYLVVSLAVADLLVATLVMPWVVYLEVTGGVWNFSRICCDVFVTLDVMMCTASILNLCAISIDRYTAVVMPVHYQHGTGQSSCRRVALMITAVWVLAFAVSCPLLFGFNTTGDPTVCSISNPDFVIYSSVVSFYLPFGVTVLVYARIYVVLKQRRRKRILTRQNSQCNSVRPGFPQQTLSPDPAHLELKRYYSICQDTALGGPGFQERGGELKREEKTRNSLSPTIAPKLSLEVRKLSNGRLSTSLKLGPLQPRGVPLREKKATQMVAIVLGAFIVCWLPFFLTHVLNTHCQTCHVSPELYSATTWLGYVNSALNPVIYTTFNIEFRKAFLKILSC
- Test Name: [N-Methyl-3H]Spiroperidol binding to cloned human dopamine D3 receptors
- Condition Context: read-out: D3 Ki
To interpret pKi, take it as minus log10 of a concentration measured in moles per litre.

Quick one: pKi for Cn1nc(C2CCN(C[C@@H]3C[C@H]3C(=O)NCC3CCNCC3)CC2)c2sccc21 [A002440434A] ? 6.34

Quick one: pKi for CC1CCC(NC(=O)C2CC2CN2CCN(c3n[nH]c4ccccc34)CC2)CC1 (racemic) ? 7.88

Quick one: pKi for O=C([C@@H]1C[C@H]1CN1CCN(c2csc3cc(C(F)(F)F)ccc23)CC1)N1CCCC(CN2CCCCC2)C1 (mixture of isomers) ? 7.85

Quick one: pKi for COc1cccc2c(C3CCN(C[C@@H]4C[C@H]4C(=O)NCCCn4ccnc4)CC3)noc12 ? 7.00

Quick one: pKi for Cn1nc(N2CCN(C[C@@H]3C[C@H]3C(=O)N[C@H]3CC[C@H](C)CC3)CC2)c2ccccc21 ? 9.31

Quick one: pKi for O=C(NC1CCN(Cc2ccc(Cl)c(Cl)c2)CC1)[C@@H]1C[C@H]1CN1CCC(c2noc3ccsc23)CC1 ? 9.16

Quick one: pKi for O=C([C@@H]1C[C@H]1CN1CCC(c2noc3cc(C(F)(F)F)ccc23)CC1)N1CCC[C@@H](Cn2ccnc2)C1 ? 6.90

====

Give measured pKi for each item. Keep answers brief.
- Assay System: cloned human dopamine D3 receptors (Homo sapiens, UniProt P35462)
- Construct: expressed in transfected cells; membrane homogenate
- Test Name: [N-Methyl-3H]Spiroperidol binding to cloned human dopamine D3 receptors
- Condition Context: read-out: D3 Ki
To interpret pKi, take it as minus log10 of a concentration measured in moles per litre.

What measured pKi is associated with CC1(C)CC(NC(=O)C2CC2CN2CCC(c3noc4ccsc34)CC2)CC(C)(C)N1 (racemic) [compound 832187] on cloned human dopamine D3 receptors (Homo sapiens, UniProt P35462)? 7.72

What measured pKi is associated with O=C(NCCCn1cnc2ccccc21)[C@@H]1C[C@H]1CN1CCC(c2noc3ccsc23)CC1 [compound 831377] on cloned human dopamine D3 receptors (Homo sapiens, UniProt P35462)? 8.33

What measured pKi is associated with O=C(NC1CCN(Cc2ncc[nH]2)CC1)[C@@H]1C[C@H]1CN1CCC(c2noc3ccsc23)CC1 [compound 833382] on cloned human dopamine D3 receptors (Homo sapiens, UniProt P35462)? 8.63

What measured pKi is associated with CCC1CCC(NC(=O)C2CC2CN2CCC(c3ccccc3Cc3ccccc3)CC2)CC1 (racemic) [compound 830132] on cloned human dopamine D3 receptors (Homo sapiens, UniProt P35462)? 8.03

====

- Assay System: cloned human dopamine D3 receptors (Homo sapiens, UniProt P35462)
- Construct: expressed in transfected cells; membrane homogenate
- Test Name: [N-Methyl-3H]Spiroperidol binding to cloned human dopamine D3 receptors
- Condition Context: read-out: D3 Ki
Give measured pKi for each item. Keep answers brief.
To interpret pKi, take it as minus log10 of a concentration measured in moles per litre.

Quick one: pKi for O=C(NC1CCN(Cc2cc(F)cc(F)c2)CC1)[C@@H]1C[C@H]1CN1CCC(c2noc3ccsc23)CC1 [compound 833166] ? 8.76

Quick one: pKi for C[C@H]1CC[C@H](NC(=O)[C@H]2C[C@@H]2CN2CCN(c3noc4ccsc34)CC2)CC1 [compound 831082] ? 7.42

Quick one: pKi for COc1c(F)ccc2c(C3CCN(C[C@@H]4C[C@H]4C(=O)NCCCc4ccccc4)CC3)noc12 [compound 831310] ? 6.99

Quick one: pKi for O=C(NCCc1ccccc1)C1(CCN2CCN(c3csc4cc(C(F)(F)F)ccc34)CC2)CC1 [compound 832519] ? 7.01

Data origin: patent US7772252B2
